Hey, just so you know, these numbers are from patent US20220396626A1.

Target: T1, human CLL1 ECD-His (human CLL1 extracellular domain with His tag) (human, UniProt Q5QGZ9 65-265)
T1 construct: also called antigen human CLL1 ECD-His; antigen CLL1; not shown: His tag
T1 sequence: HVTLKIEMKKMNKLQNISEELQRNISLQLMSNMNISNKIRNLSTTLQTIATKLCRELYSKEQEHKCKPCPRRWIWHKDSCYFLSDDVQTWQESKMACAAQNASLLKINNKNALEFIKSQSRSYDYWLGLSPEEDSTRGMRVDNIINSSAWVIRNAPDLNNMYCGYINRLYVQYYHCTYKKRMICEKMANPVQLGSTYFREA
Assay: BLI (ForteBio), antibody on AHC sensor, 60 nM human CLL1 ECD-His, 1:1 model
reported_endpoint: koff (s⁻¹)
Answer in s⁻¹, number only, no unit symbol.

Some binders with recorded koff:
chimeric antibody ch27H4 (antibody, V domains shown, also called parent antibody) VH: EVQLQQSGPELVKPGASVKISCKASGYSFTGYHMHWVKQSHVKSLEWIGRINPYNGAASHNQKFKDKATLTVDKSSSTAYMELHSLTSEDSAVYYCARGWDYDGGYYAMDYWGQGTSVTVSS VL: DIVMSQSPSSLAVSVGEKVTMSCKSSQSLLYSDNQKNYLAWYQQKPGQSPKLLIYWASTRESGVPDRFTGSGSGTDFTLTISSVKAEDLAVYYCQQYYTYPYTFGGGTKLEIK ... 0.00124
anti-human CLL-1 control antibody 1075.7 (antibody, it was captured by anti-human IgG sensors and detected with anti-human IgG-Fc, so a human Fc was present; also called ch1075.7) scFv: ENVLTQSPAIMSASPGEKVTMTCRASSNVISSYVHWYQQRSGASPKLWIYSTSNLASGVPARFSGSGSGTSYSLTISSVEAEDAATYYCQQYSGYPLTFGAGTKLELGGGGSGGGGSGGGGSDIQLQESGPGLVKPSQSLSLTCSVTGYSITSAYYWNWIRQFPGNKLEWMGYISYDGRNNYNPSLKNRISITRDTSKNQFFLKLNSVTTEDTATYYCAKEGDYDVGNYYAMDYWGQGTSVTVSS ... 0.000997
humanized antibody hz27H4H1L1 (antibody, V domains shown, Heavy chain variable region hz27H4H1 with light chain variable region hz27H4L1; also called h27H4H1L1 (complete antibody)) VH: EVQLVQSGAEVKKPGASVKVSCKASGYTFTGYHMHWVRQAPGQRLEWMGRINPYNGAASHNQKFKDRVTITRDTSASTAYMELSSLRSEDTAVYYCARGWDYDGGYYAMDYWGQGTLVTVSS VL: DIQMTQSPSSLSASVGDRVTITCKSSQSLLYSDNQKNYLAWYQQKPGKAPKLLIYWASTRESGVPSRFSGSGSGTDFTLTISSLQPEDFATYYCQQYYTYPYTFGQGTKLEIK ... 0.000862

Attention now shifts to the item below.
Per the records, this binder ( humanized antibody hz27H4H1L2 (antibody, V domains shown, Heavy chain variable region hz27H4H1 with light chain variable region hz27H4L2; also called h27H4H1L2 (complete antibody)) VH: EVQLVQSGAEVKKPGASVKVSCKASGYTFTGYHMHWVRQAPGQRLEWMGRINPYNGAASHNQKFKDRVTITRDTSASTAYMELSSLRSEDTAVYYCARGWDYDGGYYAMDYWGQGTLVTVSS VL: DIVMTQSPLSLPVTPGEPASISCKSSQSLLYSDNQKNYLAWYLQKPGQSPQLLIYWASTRESGVPDRFSGSGSGTDFTLKISRVEAEDVGVYYCQQYYTYPYTFGQGTKLEIK ) has koff equal to 0.000976
